# TEST METHOD NOTES: NCI Yeast Anticancer Drug Screen. Data for the mec2-1 strain (AID 157)
# CONDITIONS: S. cerevisiae mec2-1 strain, at 50.0 µM, stronger effect = higher value
# Procedure: Growth inhibition of yeast strains with defined genetic alterations is measured as a screen for potential anti-cancer activity. Selected strains with alterations in DNA damage repair or cell cycle control were exposed to compounds and growth inhibition was measured relative to vehicle treated controls. The strain used in this assay is mec2-1
This is part of a sample that, as a whole, favours compounds with a hit. Of some 79,000 tested, about 15% had one in any assay.
MEASURED METRIC: growth inhibition (%)

>>> assay_result("O=C1c2ccccc2CC12Cc1ccc3c(c1C2=O)CCCC3 (configuration not stated)")
-14.4
>>> assay_result("COc1ccc(N2C(=O)C3c4[nH]c5ccc(F)cc5c4C4CCC(C(C)(C)C)CC4C3C2=O)cc1 (configuration not stated)")
-2.3
>>> assay_result("COc1ccccc1N(CN1C(=O)CCC1C(=O)O)C(C)=O (configuration not stated)")
10.4
>>> assay_result("Fc1ccc(C2SCc3nc4ccccc4n32)cc1F (configuration not stated)")
-1.3
>>> assay_result("COc1ccc(C2C/C(=N/O)c3ccccc3O2)cc1 (configuration not stated)")
-7.85
>>> assay_result("Nc1nc(N)c2nc(-c3ccc(N(CCO)CCO)cc3)c(N)nc2n1")
-14.8
>>> assay_result("CC1CCCN(C(=O)/C=C/c2ccccc2)C1 (configuration not stated)")
-19.2
>>> assay_result("O=C(OCC(Cl)(Cl)Cl)N1[C@@H]2C=C[C@@H](N1C(=O)OCC(Cl)(Cl)Cl)[C@@]13CCCCC21O3 (some centres not stated)")
5.15
>>> assay_result("NC(=O)N=C(NC(N)=O)NC(N)=O")
-21.5
>>> assay_result("O=c1cn[nH]c(=O)[nH]1")
0.7
>>> assay_result("BrC1C2CC/C=C\\CCC12 (configuration not stated)")
22.7
>>> assay_result("COc1ccc(-c2nc(-c3cc4c(ccc5ccccc54)oc3=O)cs2)cc1")
18.5

---

# TEST METHOD NOTES: NCI Yeast Anticancer Drug Screen. Data for the cln2 rad14 strain (AID 165);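 note: 0% = growth equal to vehicle treated cultures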
# CONDITIONS: S. cerevisiae cln2 rad14 strain, at 50.0 µM, stronger effect = higher value
This is part of a sample that, as a whole, favours compounds with a hit. Of some 79,000 tested, about 15% had one in any assay. Activity calls are given as the source filed them. Cut-off read from the data, not from the text of the source: active = growth inhibition above about 70%; inactive = the rest.
MEASURED METRIC: growth inhibition

>>> assay_result("COc1ccc(N2C(=O)CC(c3cc(OC)c(OC)c(OC)c3)CC2=O)cc1")
"3.1% (inactive)"
>>> assay_result("CC(=O)[C@@H](C)C(=O)N1C(=O)OC[C@@]12[C@@H]1CC[C@@H](C1)C2(C)C")
"-26.4% (inactive)"
>>> assay_result("CC(C)c1ccc(Cc2ccc(C(C)C)c(NC(=O)C(=O)Cc3cnc4ccccc4n3)c2C(C)C)c(C(C)C)c1NC(=O)C(=O)Cc1cnc2ccccc2n1")
"14.3% (inactive)"
>>> assay_result("Cc1ccc(N=C2N=C(N3CC(C)OC(C)C3)c3ccccc32)cc1 (centres undefined)")
"-7.8% (inactive)"
>>> assay_result("NCCC(=O)O")
"12.1% (inactive)"
>>> assay_result("N/C(=N\\OC(=O)Nc1ccc(CSc2ccc(Cl)cc2)o1)c1ccccn1")
"10.8% (inactive)"
>>> assay_result("O=C(OCC(Cl)(Cl)Cl)N1[C@@H]2C=C[C@@H](N1C(=O)OCC(Cl)(Cl)Cl)[C@@]13CCCCC21O3 (some centres undefined)")
"1.8% (inactive)"
>>> assay_result("CC(O)(c1ccc(Cl)cc1)c1ccc(Cl)cc1")
"-52.6% (inactive)"
>>> assay_result("CCC1SCC(C)(C)NC1=O (centres undefined)")
"-39.2% (inactive)"
>>> assay_result("C/C(CCC1CCCCC1)=N/NC(N)=O")
"14.7% (inactive)"
>>> assay_result("CC1OCOC(CO)C(O)C1O (centres undefined)")
"-32% (inactive)"
>>> assay_result("COc1ccc(CNc2ccccc2)cc1")
"10.6% (inactive)"
>>> assay_result("O=C1NC(=O)C2(CCCC2=Nc2ccc(Br)cc2)C2C=CN(Cc3ccccc3)C=C12 (centres undefined)")
"2.4% (inactive)"
>>> assay_result("N#C/C=C\\c1ccc(C#N)cc1")
"6.85% (inactive)"
>>> assay_result("C[CH2][Sn]([CH2]C)([n]1c2ccccc2c2c(C)c3cnccc3c(C)c21)[n]1c2ccccc2c2c(C)c3cnccc3c(C)c21")
"44.5% (inactive)"
>>> assay_result("C=C(C)C1CC=C(C)[C@](O)(C2(O)C[C@H](C(=C)C)CC=C2C)C1 (some centres undefined)")
"23.9% (inactive)"
>>> assay_result("COc1ccc(OC)c(N=Nc2cc(OC)ccc2OC)c1")
"-13.8% (inactive)"
>>> assay_result("Nc1ccnc(SCCCCc2ccccc2)n1")
"-6.15% (inactive)"
>>> assay_result("COc1cc(OC)c(C(C)=O)c(C(C)=O)c1")
"-5.3% (inactive)"
>>> assay_result("O=C1C=C(Nc2ccc(S(=O)(=O)Nc3ncccn3)cc2)c2ccccc2C1=O")
"30.8% (inactive)"
>>> assay_result("CCN(CC)C(=O)CC1(O)CCCCC1")
"-9.65% (inactive)"
>>> assay_result("CN1CC(=O)N(CO)/C1=N\\CO")
"-10.8% (inactive)"
>>> assay_result("O=C1NC(N2CCCCC2)=N/C1=C\\c1ccccc1O")
"15.1% (inactive)"
>>> assay_result("CC1(C)CN(CCO)C(C)(C)CN1CCO")
"12.4% (inactive)"

---

In this section, each of the compounds is paired with its reported growth inhibition.
# TEST METHOD NOTES: NCI Yeast Anticancer Drug Screen. Data for the bub3 strain (AID 167)
# CONDITIONS: S. cerevisiae bub3 mutant strain, at 50.0 µM, stronger effect = higher value
Compounds without any hit were thinned out: in the full panel of roughly 79,000, 15% have a hit.
MEASURED METRIC: growth inhibition (%)

>>> assay_result("Nc1c(-c2ccccc2[N+](=O)[O-])nc2ccccn12")
-19.2
>>> assay_result("O=C1c2ccccc2C(=O)N1CCc1ccccc1")
16.6
>>> assay_result("O=[N+]([O-])c1ccccc1-c1ccccc1[N+](=O)[O-]")
-24.4
>>> assay_result("COC(=O)c1cc(OC)c2cccnc2c1Nc1ccccc1")
11.1
>>> assay_result("CC1=NN(C(=O)CC(=O)Nc2ccc(C(=O)O)cc2)C(=O)C1N=Nc1ccccc1C(=O)O (stereo not drawn)")
-1.9
>>> assay_result("COc1ccc(C2(C)OCCCC2([NH-])C[NH-])cc1.[Cl][Pt+2][Cl] (stereo not drawn)")
-0.4
>>> assay_result("O=Cc1cc2ccccc2c2ccccc12")
0.2
>>> assay_result("O=[N+]([O-])c1ccc(OC2CC3C4C=CC3C2C4)c([N+](=O)[O-])c1 (stereo not drawn)")
-9.6
>>> assay_result("NC1=NS(=O)(=O)Nc2nc(-c3ccccc3)c(-c3ccccc3)nc21")
2.6
>>> assay_result("N=C1C(=O)C(=N)c2ccccc2-c2ccccc21")
-36.6
>>> assay_result("Cc1ccc(C(=O)c2ccccc2C(=O)O)cc1C(=O)O")
10.2
>>> assay_result("NS(=O)(=O)c1ccc(NC(=S)/N=C/c2c(O)c3ccccc3oc2=O)cc1")
-10.4
>>> assay_result("Cc1cc(C)nc(N)n1")
-1.9
>>> assay_result("COc1cc2c(c(OC)c1OC)-c1ccc(SCC3CCC4CC3C4(C)C)c(=O)cc1C(NC(C)=O)CC2 (stereo not drawn)")
95.9
>>> assay_result("Cc1nn2c(C(=O)O)nnc2s1")
-16.6
>>> assay_result("Nc1nc(C=O)c(CCc2ccccc2)c(=O)[nH]1")
-11
>>> assay_result("CCOC(=O)c1c(NC(=O)CCl)ssc1=S")
4.7
>>> assay_result("CC(=O)ON(C(=O)c1ccccc1)c1ccccc1")
7.05
>>> assay_result("CCOC1=C/C(=N\\NC(N)=O)CCC1")
3.95
>>> assay_result("CCOC(=O)c1c(Cl)c(CC)c(Cl)n2c1nc1ccccc12")
-2.8
>>> assay_result("NC(=O)C(Cc1ccc(O)cc1)NC(=O)c1ccccc1 (stereo not drawn)")
22.1
>>> assay_result("Cc1ccc(NC(=O)C(=O)C(C#N)c2nc(-c3ccc(-c4ccccc4)cc3)cs2)c(C)c1 (stereo not drawn)")
4.75
>>> assay_result("CCCC(=O)OC1CCCC1")
21.8
>>> assay_result("O=CNc1ccc(-c2ccc(NC=O)cc2)cc1")
-12.8
>>> assay_result("Cc1c2ccnc(C#N)c2c(C)c2c1[nH]c1ccccc12")
12.8
>>> assay_result("CN(C)CCCNC(=O)c1cc(NC(=O)c2cc(NC(=O)c3cc(NC(=O)CCCn4ccc(CO)c4CO)cn3C)cn2C)cn1C")
4.8
>>> assay_result("c1ccc(B2OCC(C3OB(c4ccccc4)OC4COB(c5ccccc5)OC43)O2)cc1 (stereo not drawn)")
-23.2
>>> assay_result("CCOc1ccc(N2N=C(C)CCC2=O)cc1")
6.15
>>> assay_result("CC(C)C(O)C(C)(C)C(O)C#N (stereo not drawn)")
0.4
>>> assay_result("COc1ccc2cc(C(=O)O)ccc2c1OC")
-6.3
>>> assay_result("CN(C)C1C=CS(=O)(=O)C1 (stereo not drawn)")
0.95
>>> assay_result("COc1ccc(/C=C2\\N=C(SC)NC2=O)cc1")
2
>>> assay_result("COC(=O)/C=C/C(=O)N1CC(C)N(C(=O)/C=C/C(=O)OC)CC1C (stereo not drawn)")
1.45
>>> assay_result("CCCCCCCC1CC(OCC)OC(CCCCCCC)O1 (stereo not drawn)")
-2.25
>>> assay_result("O=C(Cc1ccc(Cl)cc1)c1ccccc1Cl")
-5.65
>>> assay_result("CC(OCc1ccccc1)C(NC(=O)C1CSSCC(NC(=O)C(Cc2ccccc2)NC(=O)OCc2ccccc2)C(=O)NC(Cc2ccccc2)C(=O)NC(Cc2cn(C=O)c3ccccc23)C(=O)NC(CCCCNC(=O)OCc2ccccc2)C(=O)NC(C(C)OCc2ccccc2)C(=O)N1)C(N)=O (stereo not drawn)")
23.8
>>> assay_result("COc1ccc(C(=O)Oc2ccc(C)c(CC(Cl)(Cl)Cl)c2)cc1")
-6.35
>>> assay_result("CN(/N=C/c1ccccn1)C1=NCCCN1")
-5.4
>>> assay_result("CN(C)C=Nc1cccc2cnccc12")
13.1
>>> assay_result("OCCOc1ccc2ccccc2c1-c1c(OCCO)ccc2ccccc12")
98.9
>>> assay_result("CC1(C)C=C(C(Br)c2ccc(Cl)cc2)C(=O)c2ccccc21 (stereo not drawn)")
88.2
>>> assay_result("S=C1NC=CC(S)N1 (stereo not drawn)")
11.2
>>> assay_result("CC(=O)Nc1cc(Br)cc2c1-c1ccc(Br)cc1C2")
5.3
>>> assay_result("CCC(=O)/C=C/C1=C(C)CCCC1(C)C")
5.8
>>> assay_result("CC(=O)OCC1C(=O)OCC1C(=O)N1Cc2cc3ccccc3nc2C1 (stereo not drawn)")
31.2
>>> assay_result("COC1Cc2c(C)c(OC(C)=O)c3cccnc3c2O1 (stereo not drawn)")
4.25
>>> assay_result("NS(=O)(=O)c1ccccc1")
12.4
>>> assay_result("COc1ccc(CCc2nccn2C)cc1OC")
-7.95

Attribution: PubChem BioAssay (NCI)
